The reported measurements were obtained from paper PMC9133069.

Documented IC50 across a set of compounds
system: primary rat hepatocytes; assay: Hepatotoxicity assessment, cell viability (trypan blue exclusion) after 24 h compound treatment; assay type: cell-based; conditions: Hepatocyte, collagen-coated 24-well plates, culture duration 4 days, 24 h treatment
Provide only the numeric value, understood in mM.

STRUCTURE_NOTATION | TARGET_OR_TEST_SYSTEM | UNIT_TAG | IC50
CC(=O)Nc1ccc(O)cc1 | primary rat hepatocytes | mM | 19.3

Given item O=C(O)Cc1ccccc1Nc1c(Cl)cccc1Cl , the value recorded as its IC50 is 0.472

====

Documented pIC50 across a set of molecules
tested on: primary rat hepatocytes; assay: Hepatotoxicity assessment, urea synthesis after 24 h compound treatment; assay type: cell-based; settings: Hepatocyte, collagen-coated 24-well plates, culture duration 4 days, 24 h treatment
Value format note: pIC50 is -log10 of concentration (mol/L); just state the number.

STRUCTURE_NOTATION | TARGET_OR_TEST_SYSTEM | RECORDED_NUMBER
CC(=O)Nc1ccc(O)cc1 | primary rat hepatocytes | 1.62

Okay, next one:
Item O=C(O)Cc1ccccc1Nc1c(Cl)cccc1Cl ; assay system primary rat hepatocytes; pIC50 reported as 3.41
